Catalogue of compounds with associated log10 of TGI
Tested on: NCI-H522 lung
ASSAY PROCEDURE: NCI tumour cell line growth inhibition, 48 h
On a log10 scale: recorded TGI, unit µM.

1) CC1=C(N2CC2)C(=O)C(C)=C(N2CC2)C1=O    -0.37
2) CN(C)C[C@@H]1CCn2cc(c3ccccc32)C2=C(C(=O)NC2=O)c2cn(c3ccccc23)CCO1    0.86

Request: For NCI-H522 lung, give the measured log10 of TGI of the entry `O=c1[nH][nH]c(=O)c2c(O)c(-c3ccccc3)ncc12`
Response: 2.58

Request: For NCI-H522 lung, give the measured log10 of TGI of the entry `CC(C)c1ccc(C(c2c(O)c3ccccc3oc2=O)c2c(O)c3ccccc3oc2=O)cc1`
Response: 1.66

Request: For NCI-H522 lung, give the measured log10 of TGI of the entry `C[N+]1(C)C/C(=C\C=C\c2ccccc2)C(=O)/C(=C/C=C/c2ccccc2)C1`
Response: 1.33

Request: For NCI-H522 lung, give the measured log10 of TGI of the entry `CCN(CC)CCC(=O)Nc1ccc2sc3ccccc3c(=O)c2n1`
Response: 1.48

----------
System: HOP-62 NSCLC
ASSAY PROCEDURE: NCI tumour cell line growth inhibition, 48 h
Catalogue of compounds with associated TGI

Example cases with answers are listed next.
1. O=c1oc2ccc(I)cc2c(=O)n1-c1ccc(I)cc1F    9.46 µM
2. CC(=O)OC1CC2C(=O)CC1(C)C2(C)C (stereo unspecified)    > 100 µM
3. Cc1ccc2nc(-c3nccn3C)cc(C(=O)NC(C)CN(C)C)c2c1 (stereo unspecified)    > 100 µM
4. O=C1c2c(c3c4ccccc4n(CCCCCCN4CCOCC4)c3c3[nH]c4ccccc4c23)C(=O)N1O    55.2 µM

Request: For HOP-62 NSCLC, give the measured TGI of the entry `N#CCCN(c1ccc(C=Nc2ccc(C(=O)O)cc2)cc1)S(=O)(=O)c1ccccc1`
Response: > 100 µM

Request: For HOP-62 NSCLC, give the measured TGI of the entry `Cc1cc(=O)n2c(cc3cccccc32)n1`
Response: > 100 µM

----------
Test system: M19-MEL melanoma
ASSAY PROCEDURE: NCI tumour cell line growth inhibition, 48 h
MEASURED QUANTITY: TGI

Example cases with answers are listed next.
1. O=c1oc2c(O)c(O)cc3c(=O)oc4c(O)c(O)cc1c4c23    > 100 µM
2. O=C(CC1(O)C(=O)Nc2c(Cl)cc(Cl)cc21)c1ccc([N+](=O)[O-])cc1 (stereo not given)    22 µM
3. O=C1CS(=O)c2ccccc2N1 (stereo not given)    > 100 µM
4. COc1ccc(OC)c(CCc2ccccc2CC(=O)O)c1    > 100 µM
5. O=[N+]([O-])c1cc(C(F)(F)F)cc2n[se]nc12    10.6 µM

Request: Let me know recorded TGI for `O=[N+]([O-])c1cc(C(F)(F)F)cc2c1SC1=Nc3ccccc3CN12` , thanks.
Response: > 100 µM

----------
Catalogue of compounds with associated TGI
Tested on: OVCAR-3 ovarian
ASSAY PROCEDURE: NCI tumour cell line growth inhibition, 48 h
Write the answer as a number in µM, unit excluded.

1. CCc1c2c(nc3ccc(OC(=O)OCc4ccc(B5OC(C)(C)C(C)(C)O5)cc4)cc13)-c1cc3c(c(=O)n1C2)COC(=O)[C@]3(O)CC    1.46

Consider now this further compound.
Request: For OVCAR-3 ovarian, give the measured TGI of the entry `O=C1C(c2ccccc2)=[N+]([O-])c2cc([N+](=O)[O-])ccc21`
Response: 36.8
